Entries annotated with measured Growth Rate
- System: U2OS
- test.name: Incucyte cell viability with U2OS; further: unitless GR value; below 1 slowed growth and below 0 cell loss
- Assay type: toxicity, cell-based
- conditions.used: human, 18 h, 10 µM, compound concentration 10 uM, replicate number 2

# smiles, Growth Rate
rows = [
    ("CC[C@H](CC(=O)O)n1c(=O)c2ncccc2n(Cc2cn(C)c3cc(C)cc(C)c23)c1=O", 0.84),
    ("Fc1ccc(-c2nc(-c3c(F)cccc3F)[nH]c2-c2ccncc2)cc1", 0.97),
    ("COc1cc(Nc2cnc(C#N)c(O[C@H](C)CN(C)C)n2)ncc1-c1cnn(C)c1", 0.67),
    ("Cc1cccc(CC(=O)N2CCc3c2ccc(-c2cn(C)c4ncnc(N)c24)c3F)n1", 0.97),
    ("CN(C)c1ncc2cc(-c3ccc(-c4ncccc4F)cc3Cl)c(=O)n(C[C@H]3OC[C@H](N)CO3)c2n1", 0.99),
    ("Cn1nccc1-c1ccc(Sc2cccc(C3(C(N)=O)CCOCC3)c2)cc1", 0.88),
    ("Cn1cc(-c2ccc3occ(-c4cccc(-c5ccncc5)c4)c3n2)cn1", 0.73),
    ("Clc1cccc(-n2nnnc2NCc2ccccc2Oc2ccccn2)c1Cl", 0.96),
    ("OC(c1ccc(-c2ccc(CN3CCN(Cc4ccncc4)CC3)cc2)c(F)c1)(C(F)(F)F)C(F)(F)F", 0.78),
]

###

- Tested on: U2OS
- test.name: Incucyte cell viability with U2OS; further: unitless GR value; below 1 slowed growth and below 0 cell loss
- Type: toxicity, cell-based
- conditions.used: human, 18 h, 10 µM, compound concentration 10 uM, replicate number 1
Tag: Yes if measured Growth Rate is not below 0.7, No if it is.

# compound, category.label
rows = [
    ("Cn1c2ccccc2c2c3c(c4c5ccccc5n(CCC#N)c4c21)CNC3=O", "No"),
    ("Cl.N/C(=N\\C(=O)c1nc(Cl)c(N)nc1N)NCc1ccccc1 [BENZAMIL HYDROCHLORIDE]", "Yes"),
    ("Cc1n[nH]c2ncc(C(=O)N3CCC[C@H]3c3ccc(Cl)cc3)cc12", "Yes"),
    ("Cc1cn(CCN2CCN(c3ccccc3-c3cc(C#N)cc(C(=O)NCCCN4CCCC4)c3)CC2)c2ccccc12", "No"),
]

###

- System: Fibroblast
- test.name: Incucyte cell viability with human fibroblast; further: unitless GR value; below 1 slowed growth and below 0 cell loss
- Assay type: toxicity, cell-based
- conditions.used: 12 h, 10 µM, compound concentration 10 uM, replicate number 1
Hi! Just check whether Growth Rate is below 0.2. Below gives Criterion met, equal or above gives Criterion not met.

# compound, category.label
records = [
    ("Cn1nccc1-c1ccc(Sc2cccc(C3(C(N)=O)CCOCC3)c2)cc1", "Criterion met"),
    ("CCC(=O)N[C@H]1CC[C@@H](C(=O)N(C)c2ccc(-c3nc4ccccc4o3)cc2)C1", "Criterion not met"),
    ("N[C@@H]1CCCN(c2c(/C=C3\\SC(=O)NC3=O)cccc2-c2ccccc2)C1", "Criterion not met"),
    ("CCCCC(C)(O)C/C=C/[C@H]1[C@H](O)CC(=O)[C@@H]1CCCCCCC(=O)O (some centres undefined)", "Criterion not met"),
    ("CN(C)CCCNc1ccnc(Nc2cccc(Cl)c2)n1", "Criterion not met"),
    ("O=S(=O)(Nc1ccc(C(O)(C(F)(F)F)C(F)(F)F)cc1)c1cccs1", "Criterion not met"),
    ("O=C(O)[C@]1(Cc2cccc(Nc3nccs3)n2)CC[C@@H](Oc2cccc(Cl)c2F)CC1", "Criterion met"),
    ("COc1ccccc1-c1cc(Nc2cccc(CS(N)(=O)=O)c2)ncn1", "Criterion not met"),
    ("O=C(Nc1cccc(Nc2nccc(Nc3cccc(C(F)(F)F)c3)n2)c1)C1CC1", "Criterion met"),
]
